Each recorded value in this set is attributed to patent US8476197B2.

# Lookup of reported Log P keyed by entry
Conditions: pH 7.5
Reply briefly: the number, and no unit.

Fill in the blank: the reported Log P of CCOC(=O)C(C#N)=C(NC(C)c1ccc(Cl)cc1)c1cccnc1Cl (stereo not shown) [Compound 342] is ____.
3.61

Item: C=CCOC(=O)C(C#N)=C(NC(C)C(C)C)c1cccnc1Cl (stereo not shown)
3.49

Item: COC(=O)C(C#N)=C(NCC1CCCS1)c1cccnc1Cl (stereo not shown)
2.47

Item: COC(=O)C(C#N)=C(NC(C(=O)OC)C(C)C)c1cccnc1Cl (stereo not shown)
2.56

---
Fill in the blank: the reported Log P of CC(C)NC(=O)C(C#N)=C(NC(C)C(C)C)c1cccnc1Cl (stereo not shown) is ____.
3.39

Item: "COC(=O)C(C#N)=C(N[C@H](C)C1CCCCC1)c1cccnc1Cl"
3.76

Item: CNC(=O)C(C#N)=C(NC(C)c1nccs1)c1ccc(Cl)nc1Cl (stereo not shown)
2.29

Item: CC(C)C(C)NC(=C(C#N)C(N)=O)c1cccnc1Cl (stereo not shown)
1.96

Item: COC(=O)C(C#N)=C(NC(C)c1nccs1)c1sc(C)nc1C(F)(F)F (stereo not shown)
2.63

Item: "COC(=O)C(C#N)=C(NCC(N)=O)c1cccnc1Cl"
0.94

Item: CCCCCC(C)NC(=C(C#N)C(=O)OCC)c1cccnc1Cl (racemic)
4.1

====

Settings: pH 2.7
Marks after values point to notes of the source that are not given here.
# Lookup of reported Log P keyed by entry

Fill in the blank: the reported Log P of CCOC(=O)C(C#N)=C(NC(C)C(C)C)c1ccncc1Cl (stereo not drawn) [Compound 978] is ____.
3.29^[a]

Item: COC(=O)C(C#N)=C(NC(C)(C)C=C(Cl)Cl)c1sc(C)nc1C(F)(F)F [Compound 1104]
3.73^[a]

Item: CCOC(=O)C(C#N)=C(Nc1ccccc1SC)c1ncc(C(F)(F)F)cc1Cl [Compound 350]
4.26^[a]

Item: CCOC(=O)C(C#N)=C(NC(C)c1nccs1)c1ccsc1I (racemic) [Compound 158]
3.08^[a]

Item: CCOC(=O)C(C#N)=C(NC1C2CCCCC21)c1cn(C)nc1C(F)F (stereo not drawn) [Compound 1131]
3.44^[a]

Item: CCOC(=O)C(C#N)=C(NC(C)C(N)=O)c1nc(Cl)ccc1Cl (stereo not drawn) [Compound 698]
1.97^[a]

Item: CCOC(=O)C(C#N)=C(NC(C)c1cnc(Cl)s1)c1cccnc1Cl (stereo not drawn) [Compound 1444]
3.1^[a]

Item: CCOC(=O)C(C#N)=C(NC(C)c1ccc(Cl)cc1)c1ccsc1Br (stereo not drawn) [Compound 411]
4.35^[a]

Item: CCOC(=O)C(C#N)=C(NC(C)C1CC1)c1cnn(C)c1C(F)F (stereo not drawn) [Compound 1303]
2.98^[a]

Item: COC(=O)C(C#N)=C(NC1CCc2ccccc21)c1cccnc1Cl (stereo not drawn) [Compound 1078]
3.06^[a]

Item: CCOC(=O)C(C#N)=C(NC(C)c1sc(C)nc1C)c1sc(C)nc1C(F)(F)F (stereo not drawn) [Compound 218]
3.13^[a]

Item: COC(=O)C(C#N)=C(NC(C)c1ccc(C)cc1)c1sc(C)nc1C(F)(F)F (mixture of isomers) [Compound 443]
4.01^[a]

Item: CCOC(=O)C(C#N)=C(NCc1ccccn1)c1sccc1C(F)(F)F [Compound 102]
2.84^[a]

====

# Lookup of reported Log P keyed by entry
Settings: pH 2.7
Marks after values point to notes of the source that are not given here.

Fill in the blank: the reported Log P of "CCOC(=O)C(C#N)=C(NC(C)(C)CC)c1cn(C)nc1C(F)F" is ____.
2.96^[a]

Item: "CC#CC(C)(C)NC(=C(C#N)C(=O)OC)c1sc(C)nc1C(F)(F)F"
3.35^[a]

Item: "COC(=O)C(C#N)=C(NCc1nccs1)c1ncc(C(F)(F)F)cc1Cl"
2.63^[a]

---
Fill in the blank: the reported Log P of CCOC(=O)C(C#N)=C(NC(C)c1nccs1)c1ccnc(C)c1Cl (stereo not drawn) is ____.
2.57^[a]

Item: CCOC(=O)C(C#N)=C(NCC(C)N)c1c(C)nn(C)c1Cl (stereo not drawn)
0.96^[a]

Item: CCOC(=O)C(C#N)=C(NC(C)c1ccccn1)c1sccc1Br (stereo not drawn)
3.1^[a]

Item: COC(=O)C(C#N)=C(NC(C)c1cc(Cl)cc(Cl)c1)c1cccnc1Cl (stereo not drawn)
3.68^[a]

Item: "COC(=O)C(C#N)=C(NCc1nc2ccccc2s1)c1sc(C)nc1C(F)(F)F"
3.15^[a]

Item: CCOC(=O)C(C#N)=C(NC(C)COc1c(C)cccc1C)c1cn(C)nc1C(F)F (stereo not drawn)
3.96^[a]

Item: "CCOC(=O)C(C#N)=C(NC(C)(C)C=C(Cl)Cl)c1cn(C)nc1C(F)F"
3.31^[a]

Item: CCOC(=O)C(C#N)=C(NC(C)c1ccccn1)c1ccnc(Br)c1Cl (racemic)
3.09^[a]

Item: CCOC(=O)C(C#N)=C(NC(C)c1nccs1)c1ccnc(Br)c1Cl (stereo not drawn)
3.02^[a]

Item: CCOC(=O)C(C#N)=C(NC(C)c1nccs1)c1cnc(Cl)cc1Cl (racemic)
3^[a]

Item: "CCOC(=O)C(C#N)=C(NC1CCC1)c1scnc1Cl"
3^[a]

Item: CCOC(=O)C(C#N)=C(NC(C)c1c(Cl)cccc1Cl)c1cccnc1Cl (stereo not drawn) [Compound 1649]
3.8^[a]

Item: "CCOC(=O)C(C#N)=C(NCCOC)c1cccnc1Cl"
2.17^[a]

Item: COC(=O)C(C#N)=C(NC(C)COc1c(C)cccc1C)c1sc(C)nc1C(F)(F)F (racemic)
4.34^[a]

Item: CCSC(=O)C(C#N)=C(NC(C)C(C)C)c1cccnc1Cl (stereo not drawn)
3.87^[a]

====

# Lookup of reported Log P keyed by entry
Conditions: pH 2.7
Marks after values point to notes of the source that are not given here.

Worked examples, 5 compounds total:
Fill in the blank: the reported Log P of CCOC(=O)C(C#N)=C(NC(c1ccc(Cl)cc1)C1CC1)c1cn(C)nc1C(F)F (stereo not drawn) [Compound 1363] is ____.
3.89^[a]

Item: CCOC(=O)C(C#N)=C(NC(C)(C)C#Cc1ccc(C)cc1)c1cccnc1Cl [Compound 1268]
4.41^[a]

Item: CCOC(=O)C(C#N)=C(NCc1nc2ccccc2s1)c1sccc1Br [Compound 170]
3.53^[a]

Item: CCOC(=O)C(C#N)=C(NC(C)C(C)C)c1cc(C)oc1C (stereo not drawn) [Compound 947]
3.99^[a]

Item: CCOC(=O)C(C#N)=C(NC(C)CC)c1sccc1Br (stereo not drawn) [Compound 827]
3.76^[a]

---
Fill in the blank: the reported Log P of CCCC(C)NC(=C(C#N)C(=O)OC)c1sc(C)nc1C(F)(F)F (stereo not drawn) [Compound 866] is ____.
3.61^[a]

Item: COC(=O)C(C#N)=C(NC(C)C)c1cccnc1Cl [Compound 822]
2.11^[a]

Item: COC(=O)C(C#N)=C(NC(C)(C)c1ccc(Cl)cc1)c1cccnc1Cl [Compound 337]
3.33^[a]

Item: CCOC(=O)C(C#N)=C(NC(C)C(N)=O)c1ncc(C(F)(F)F)cc1Cl (racemic) [Compound 592]
2.17^[a]

Item: CCOC(=O)C(C#N)=C(NC(C)C(=O)Nc1ccc2ccccc2c1)c1sccc1Br (racemic) [Compound 669]
3.89^[a]

Item: CCOC(=O)C(C#N)=C(NC(C)C1CC1)c1sc(Cl)nc1Cl (stereo not drawn) [Compound 893]
3.87^[a]

Item: CCOC(=O)C(C#N)=C(NC(C)c1ccccn1)c1cn(C)nc1C(C)C (stereo not drawn) [Compound 1207]
2.58^[a]

Item: CCCCCC(C)NC(=C(C#N)C(=O)OCC)c1sccc1C(F)(F)F (racemic) [Compound 849]
5.05^[a]

Item: COC(=O)C(C#N)=C(NC1CCC(C(F)(F)F)CC1)c1cccnc1Cl (stereo not drawn) [Compound 1075]
3.04^[a]

Item: CCOC(=O)C(C#N)=C(NC(C)c1ccncn1)c1cccnc1Cl (stereo not drawn) [Compound 330]
2.01^[a]

Item: CCOC(=O)C(C#N)=C(NC(C)c1nccs1)c1cc(Cl)cc(Cl)n1 (racemic) [Compound 265]
3.31^[a]

Item: CCOC(=O)C(C#N)=C(NC(C)CC(C)C)c1sc(C)nc1C(F)(F)F (racemic) [Compound 784]
4.29^[a]

Item: CCNC(=O)C(C#N)=C(NC(C)C(C)C)c1cccnc1C#N (stereo not drawn) [Compound 1199]
2.64^[a]

====

Settings: pH 2.7
Marks after values point to notes of the source that are not given here.
READOUT TYPE: Log P

Fill in the blank: the reported Log P of CCOC(=O)C(C#N)=C(NC(C#N)c1cccc(Cl)c1Cl)c1cccnc1Cl (racemic) [Compound 1257] is ____.
3.69^[a]

Item: CCOC(=O)C(C#N)=C(Nc1ccccc1SC)c1ncc(Cl)cc1Cl [Compound 503]
4.09^[a]

Item: C=CCCCC(C=C)NC(=C(C#N)C(=O)OCC)c1cn(C)nc1C(F)(F)F (centres unmarked) [Compound 1021]
4.14^[a]

Item: CC(NC(=C(C#N)C(=O)N1CCOCC1)c1cn(C)nc1C(F)F)c1nccs1 (centres unmarked) [Compound 1327]
1.79^[a]

Item: C=CC(COCc1ccccc1)NC(=C(C#N)C(=O)OCC)c1sccc1Br (centres unmarked) [Compound 689]
4.31^[a]

Item: CCCCCC(C)NC(=C(C#N)C(=O)OCC)c1cn(C)nc1C(F)F (racemic) [Compound 855]
3.94^[a]

Item: CCOC(=O)C(C#N)=C(NC(C)CSc1ccc(Cl)c(Cl)c1)c1cccnc1Cl (centres unmarked) [Compound 1158]
4.41^[a]

Item: CCOC(=O)C(C#N)=C(NCCOc1ccccc1Br)c1cccnc1Cl [Compound 1377]
3.53^[a]

---
Fill in the blank: the reported Log P of CCOC(=O)C(C#N)=C(NC(C)CN(C)C)c1c(C)nn(C)c1Cl (centres unmarked) [Compound 605] is ____.
1.13^[a]

Item: CCOC(=O)C(C#N)=C(NC(C)c1nccs1)c1sccc1C(F)(F)F (centres unmarked) [Compound 96]
3.31^[a]

Item: CCOC(=O)C(C#N)=C(NC(C)c1nccs1)c1cn(C)nc1C(F)(F)F (racemic) [Compound 63]
2.78^[a]

Item: CCOC(=O)C(C#N)=C(NC(C#N)c1cccc(Cl)c1Cl)c1cn(C)nc1C(F)F (centres unmarked) [Compound 1219]
3.44^[a]

Item: CCOC(=O)C(C#N)=C(NCc1nc(C(F)(F)F)cs1)c1sc(C)nc1C(F)(F)F [Compound 198]
3.35^[a]

Item: CC(C)C(C)NC(=C(C#N)C(=O)O)c1sccc1Br (centres unmarked) [Compound 964]
2.74^[a]

Item: CCOC(=O)C(C#N)=C(NC(C)C(=O)NC)c1sc(C)nc1C(F)(F)F (centres unmarked) [Compound 642]
2.07^[a]

Item: CCOC(=O)C(C#N)=C(NC(C)c1ccc(C(C)C)cc1)c1cn(C)nc1C(F)F (racemic) [Compound 550]
4.2^[a]

Item: CCOC(=O)C(C#N)=C(NCc1ccc(F)cn1)c1cn(C)nc1C(F)F [Compound 203]
2.33^[a]
